B1: EEHEE_rd4_0003 (parent)
chain: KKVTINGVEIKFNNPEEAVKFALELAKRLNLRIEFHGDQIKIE

Variants of: B1
method.notes: folding stability dG (cDNA display proteolysis); higher = more stable
measurement.parameters: PBS, room temperature
Parameter folding stability dG: see the listing below.
Expressed in kcal/mol, but write only the number.

Solved entries (count: 3):
[
  {
    "sequence.code": "KKVTINYVEIKFNNPEEAVKFALELAKRLNLRIEFHGDQIKIE [G7Y]",
    "reported.property": "folding stability dG",
    "reading": 2.23
  },
  {
    "sequence.code": "KKVTINGVEIKFNNPEEAVKFALELAKRLQLRIEFHGDQIKIE [N30Q]",
    "reported.property": "folding stability dG",
    "reading": 2.38
  },
  {
    "sequence.code": "KKVTINGVEIKFNNPEEAVKDALELAKRLNLRIEFHGDQIKIE [F21D]",
    "reported.property": "folding stability dG",
    "reading": 0.978
  }
]

# evaluate next
## Input So what's the measured folding stability dG for this one? KKVTINGVEIWFNNPEEAVKFALELAKRLNLRIEFHGDQIKIE [K11W]
## Output 3.53
